- Target entity: the molecule itself
- Assay notes: SEC-MALS; co-purified complexes at >1 mg/ml on Superdex 200 Increase 10/300 GL in 20 mM Tris pH 8.0, 150 mM KCl, 2 mM DTT; in Fig. 1 core at 200 uM and full-length at 100 uM (4 mg/ml)
Each record is given YES if its reported percent of total mass as 4:4 complex is strictly below 20%. Records at or above 20% are given NO.

SYCE2-TEX12 core H89E/Y115E, 2:2 building block (complex, human, SYCE2, human, core, residues 57-165, with H89E and Y115E; TEX12, human, core, residues 49-123; m4 + m8; also called H89E Y115E mutation; source: E. coli BL21 (DE3), co-expressed, purified (Ni-NTA, amylose, ion exchange, SEC); not shown: MBP, N-terminal, cleaved; His6, N-terminal, cleaved; copies: 2 + 2) chain 1: GLYFSSLDSSIDILQKRAQELIENINKSRQKDEALMTNFRNSLKTKVSDLTEKLEERIEQIYNDHNKIIQEKLQEFTQKMAKISHLETELKQVCHSVETVYKDLCLQPE chain 2: KDEALEKDLNDVSKEINLMLSTYAKLLSERAAVDASYIDEIDELFKEANAIENFLIQKREFLRQRFTVIANTLHR	NO
SYCE2-TEX12 core ΔS2C/ΔCtip 2:2 complex (complex, human, SYCE2, human, ΔS2C, residues 57-154; TEX12, human, core ΔCtip, residues 49-113; m3 + m10; also called ΔS2C/ΔCtip core complex; source: E. coli BL21 (DE3), co-expressed, purified (Ni-NTA, amylose, ion exchange, SEC); not shown: MBP, N-terminal, cleaved; His6, N-terminal, cleaved; copies: 2 + 2) chain 1: GLYFSSLDSSIDILQKRAQELIENINKSRQKDHALMTNFRNSLKTKVSDLTEKLEERIYQIYNDHNKIIQEKLQEFTQKMAKISHLETELKQVCHSVE chain 2: KDEALEKDLNDVSKEINLMLSTYAKLLSERAAVDASYIDEIDELFKEANAIENFLIQKREFLRQR	YES
SYCE2-TEX12 full-length wild-type, 2:2 building block (complex, human, SYCE2, human, full-length, residues 1-218; TEX12, human, full-length, residues 1-123; m2 + m9; also called full-length SYCE2-TEX12; source: E. coli BL21 (DE3), co-expressed, purified (Ni-NTA, amylose, ion exchange, SEC); not shown: MBP, N-terminal, cleaved; His6, N-terminal, cleaved; copies: 2 + 2) chain 1: MERQGVDVPHVKCKDQEPQPLGESKEHPRWEENCEEEAGGGPASASCQLTVLEGKSGLYFSSLDSSIDILQKRAQELIENINKSRQKDHALMTNFRNSLKTKVSDLTEKLEERIYQIYNDHNKIIQEKLQEFTQKMAKISHLETELKQVCHSVETVYKDLCLQPEQSLRLRWGPDHSRGKSPPRPGNSQPPDVFVSSVAETTSQATASEVQTNRDGEC chain 2: MMANHLVKPDNRNCKRPRELESPVPDSPQLSSLGKSDSSFSEISGLFYKDEALEKDLNDVSKEINLMLSTYAKLLSERAAVDASYIDEIDELFKEANAIENFLIQKREFLRQRFTVIANTLHR	YES

q: Given the entry SYCE2-TEX12 core wild-type, 2:2 building block (complex, human, SYCE2, human, core, residues 57-165; TEX12, human, core, residues 49-123; in solution it is found as 4:4 complex and larger assemblies, which are the rows of this molecule with itself; also called core complex; wild-type core; source: E. coli BL21 (DE3), co-expressed, purified (Ni-NTA, amylose, ion exchange, SEC); not shown: MBP, N-terminal, cleaved; His6, N-terminal, cleaved; copies: 2 + 2) chain 1: GLYFSSLDSSIDILQKRAQELIENINKSRQKDHALMTNFRNSLKTKVSDLTEKLEERIYQIYNDHNKIIQEKLQEFTQKMAKISHLETELKQVCHSVETVYKDLCLQPE chain 2: KDEALEKDLNDVSKEINLMLSTYAKLLSERAAVDASYIDEIDELFKEANAIENFLIQKREFLRQRFTVIANTLHR , would its reported percent of total mass as 4:4 complex be below 20%?
a: NO

These entries and their values trace back to paper PMC7612376.
